// provenance: patent US20170096504A1

Task for the reader: assign each of the following compounds its reported critical micelle concentration.
Test: Critical micelle concentration by surface tension measurement
Type: physicochemical
Answers are plain numbers, in g/L.

# critical micelle concentration of N.O=C(O)C(F)(OC(F)(F)C(F)(OC(F)(F)F)C(F)(F)F)C(F)(F)F (centres unmarked) = 22

For each of the compounds below, state critical micelle concentration.
1. N.O=C(O)C(F)(OC(F)(F)C(F)(F)C(F)(F)F)C(F)(F)F (centres unmarked)
2. O=S(=O)(O)CCC(F)(F)C(F)(F)C(F)(F)C(F)(F)C(F)(F)C(F)(F)F
3. N.O=C(O)C(F)(F)C(F)(F)C(F)(F)C(F)(F)C(F)(F)F [CF3(CF2)4COONH4, ammonium perfluorohexanoate]
4. N.O=C(O)C(F)(F)C(F)(F)C(F)(F)C(F)(F)F [CF3(CF2)3COONH4, ammonium perfluoropentanoate]

[48, 1, 56, 82]
